Molecular target: POLγA:G848S (Homo sapiens, UniProt P54098, G848S)
Sequence (P54098 whole entry G848S, one chain of several): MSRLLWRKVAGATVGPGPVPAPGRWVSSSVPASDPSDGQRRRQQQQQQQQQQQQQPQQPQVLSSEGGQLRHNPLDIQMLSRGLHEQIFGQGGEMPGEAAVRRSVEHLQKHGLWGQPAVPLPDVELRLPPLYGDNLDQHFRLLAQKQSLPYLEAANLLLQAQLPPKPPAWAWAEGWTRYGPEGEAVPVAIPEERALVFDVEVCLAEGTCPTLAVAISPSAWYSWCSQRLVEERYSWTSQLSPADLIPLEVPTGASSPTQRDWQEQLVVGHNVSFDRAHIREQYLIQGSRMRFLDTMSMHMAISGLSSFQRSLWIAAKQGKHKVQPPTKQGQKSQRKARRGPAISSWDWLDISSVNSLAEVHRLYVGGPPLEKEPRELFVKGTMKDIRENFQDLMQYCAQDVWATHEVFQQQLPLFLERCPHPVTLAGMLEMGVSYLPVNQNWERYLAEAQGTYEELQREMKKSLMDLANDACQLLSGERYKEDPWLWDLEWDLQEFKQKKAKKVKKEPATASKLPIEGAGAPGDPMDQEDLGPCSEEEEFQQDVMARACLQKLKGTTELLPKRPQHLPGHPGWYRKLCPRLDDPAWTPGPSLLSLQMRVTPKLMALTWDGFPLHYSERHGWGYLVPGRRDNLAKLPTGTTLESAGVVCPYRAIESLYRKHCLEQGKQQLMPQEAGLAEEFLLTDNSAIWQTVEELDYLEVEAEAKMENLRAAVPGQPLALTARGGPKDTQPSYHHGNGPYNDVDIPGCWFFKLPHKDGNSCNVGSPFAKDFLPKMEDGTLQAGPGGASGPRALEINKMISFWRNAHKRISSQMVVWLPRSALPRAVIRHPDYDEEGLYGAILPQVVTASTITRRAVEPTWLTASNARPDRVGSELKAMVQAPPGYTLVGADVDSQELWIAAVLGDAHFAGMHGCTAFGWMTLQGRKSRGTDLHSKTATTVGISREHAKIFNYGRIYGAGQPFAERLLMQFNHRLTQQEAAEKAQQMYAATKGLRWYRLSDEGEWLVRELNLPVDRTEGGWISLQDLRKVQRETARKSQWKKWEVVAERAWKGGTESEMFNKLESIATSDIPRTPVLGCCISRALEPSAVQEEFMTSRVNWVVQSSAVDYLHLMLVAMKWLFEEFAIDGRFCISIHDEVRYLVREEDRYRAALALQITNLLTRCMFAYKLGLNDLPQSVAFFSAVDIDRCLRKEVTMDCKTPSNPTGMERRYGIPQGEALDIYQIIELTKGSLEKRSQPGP
Test: DNA polymerization assay, POLγA:G848S mutant
Type: biochemical
Conditions: stimulation of polymerase activity, primed M13mp18 ssDNA, 37° C. 2 hours; read-out: G848S AC50
measurement.kind: AC50 (µM)

{"columns": ["smiles.structure", "value.observed"],
 "data": [
  ["Cc1cc(S(=O)(=O)Nc2cccc(C(=O)N(C)CCO)c2)c(C)cc1Cl", 56]
]}

A = Cc1cnc(-c2ccc(NS(=O)(=O)c3cc(C)c(Cl)cc3C)cc2)s1
B = Cc1ccc(S(=O)(=O)Nc2csc(-c3ccccc3)n2)c(C)c1
Ask | I'm curious, which of these has a smaller AC50 number: A or B ? When you have decided, please share the label of that item.
Reply | B
(B: 2 µM, A: 3 µM)

I = Cc1cc(S(=O)(=O)Nc2cccc(C(=O)N3CCN(C)C[C@H]3C)c2)c(C)cc1Cl
II = Cc1ccc(C)c(S(=O)(=O)Nc2cccc(C(=O)N3CCCC[C@@H]3C)c2)c1
Ask | # compare AC50 for I vs II ; return the one with the smaller value When you have decided, please share the label of that item.
Reply | I
(I: 21 µM, II: 30 µM)

----------
Biological target: POLγA:Y955C (Homo sapiens, UniProt P54098, Y955C)
Sequence (P54098 whole entry Y955C, one chain of several): as the sequence (P54098 whole entry G848S, one chain of several) above, with S848G, Y955C counted along it
Assay: DNA polymerization assay, POLγA:Y955C mutant
Assay type: biochemical
Conditions: stimulation of polymerase activity, primed M13mp18 ssDNA, 37° C. 2 hours
measurement.kind: AC50 (nM)

These solved cases illustrate the format of a correct answer.
{"columns": ["compound", "AC50, nM"],
 "data": [
  ["Cc1ccc(C)c(S(=O)(=O)Nc2cccc(C(=O)N3CCOCC3C#N)c2)c1 (stereo not drawn)", 1000],
  ["Cc1cnc(-c2cc(NS(=O)(=O)c3cc(C)c(Cl)cc3C)ccc2C)s1", 9000]
]}

A = Cc1cc(S(=O)(=O)Nc2cccc(-c3ncc(C#N)s3)c2)c(C)cc1Cl
B = Cc1nc2ccc(NS(=O)(=O)c3cc(C)c(Cl)cc3C)cc2o1
C = Cc1cc(S(=O)(=O)Nc2cccc(C(=O)N3CCCC[C@H]3C)c2)c(C)cc1Cl
Ask | Hi! Can you put these in order of AC50, lowest number first? Respond with an ordered listing of the labels, as requested.
Reply | C, B, A

a = Cc1ccc(C)c(S(=O)(=O)Nc2cccc(C(=O)N3CCCCC3)c2)c1
b = Cc1cc(S(=O)(=O)Nc2cccc(-c3ncc(C4CC4)s3)c2)c(C)cc1Cl
Ask | // compare: a vs b , metric AC50, want the smaller Respond with the label that goes with your answer.
Reply | b

a = Cc1cc(S(=O)(=O)Nc2cccc(-c3ccn(C)n3)c2)c(C)cc1Cl
b = Cc1ccc(C)c(S(=O)(=O)Nc2cccc(C(=O)N3CCCC[C@@H]3C)c2)c1
c = Cc1cc(S(=O)(=O)Nc2cccc(-c3cc[nH]n3)c2)c(C)cc1Cl
d = Cc1ccc(C)c(S(=O)(=O)Nc2cccc(-c3nccs3)c2)c1
e = Cc1cc(S(=O)(=O)Nc2csc(-c3ccccc3)n2)c(C)cc1Cl
Ask | Ordering criterion: AC50; begin with the maximum. Kindly provide the labels arranged according to the requested ordering.
Reply | b, a, c, d, e

a = Cc1cc(-c2cccc(NS(=O)(=O)c3cc(C)c(Cl)cc3C)c2)n[nH]1
b = Cc1cc(S(=O)(=O)Nc2ccc3ccn(C)c3c2)c(C)cc1Cl
c = Cc1cc(S(=O)(=O)Nc2cccc(-c3ncc(CO)s3)c2)c(C)cc1Cl
Ask | # rank_down: sort by AC50, max first Reply with the labels, ordered as the question asks.
Reply | b, a, c

----------
Target: POLγ W748S + E1143G (Homo sapiens, UniProt P54098, E1143G/W748S)
Sequence (P54098 whole entry W748S/E1143G): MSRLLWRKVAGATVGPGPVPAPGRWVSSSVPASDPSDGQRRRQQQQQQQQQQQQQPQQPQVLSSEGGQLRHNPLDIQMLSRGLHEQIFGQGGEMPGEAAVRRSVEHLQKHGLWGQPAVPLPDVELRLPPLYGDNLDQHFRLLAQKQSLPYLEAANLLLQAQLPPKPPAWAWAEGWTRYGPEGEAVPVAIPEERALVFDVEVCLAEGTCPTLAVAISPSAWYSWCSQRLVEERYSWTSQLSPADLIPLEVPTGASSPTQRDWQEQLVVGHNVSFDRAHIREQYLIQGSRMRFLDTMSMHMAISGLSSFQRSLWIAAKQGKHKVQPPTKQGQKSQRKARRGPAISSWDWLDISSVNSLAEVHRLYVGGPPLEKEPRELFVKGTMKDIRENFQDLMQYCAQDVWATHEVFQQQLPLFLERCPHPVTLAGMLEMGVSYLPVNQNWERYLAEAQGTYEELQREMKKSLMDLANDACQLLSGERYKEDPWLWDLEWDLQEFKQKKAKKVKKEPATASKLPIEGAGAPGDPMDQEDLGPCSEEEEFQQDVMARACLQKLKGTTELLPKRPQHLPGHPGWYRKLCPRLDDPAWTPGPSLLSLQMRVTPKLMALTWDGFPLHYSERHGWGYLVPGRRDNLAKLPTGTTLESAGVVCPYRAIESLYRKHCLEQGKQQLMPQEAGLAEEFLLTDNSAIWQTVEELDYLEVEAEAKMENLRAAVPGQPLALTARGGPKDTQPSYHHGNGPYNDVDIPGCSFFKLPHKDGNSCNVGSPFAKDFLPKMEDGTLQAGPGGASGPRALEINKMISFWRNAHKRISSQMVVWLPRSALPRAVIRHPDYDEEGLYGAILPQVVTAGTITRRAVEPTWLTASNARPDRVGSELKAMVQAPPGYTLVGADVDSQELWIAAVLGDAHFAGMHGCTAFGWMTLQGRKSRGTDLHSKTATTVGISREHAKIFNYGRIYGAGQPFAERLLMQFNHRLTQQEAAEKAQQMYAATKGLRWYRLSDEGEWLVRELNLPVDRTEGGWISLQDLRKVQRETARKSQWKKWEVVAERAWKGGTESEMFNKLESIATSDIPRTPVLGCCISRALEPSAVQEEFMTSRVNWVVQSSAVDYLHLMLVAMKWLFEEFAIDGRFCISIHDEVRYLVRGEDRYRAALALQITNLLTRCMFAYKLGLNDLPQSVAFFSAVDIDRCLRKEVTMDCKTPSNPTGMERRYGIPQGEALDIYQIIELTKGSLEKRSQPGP
Sequence (Q9UHN1 whole entry partner): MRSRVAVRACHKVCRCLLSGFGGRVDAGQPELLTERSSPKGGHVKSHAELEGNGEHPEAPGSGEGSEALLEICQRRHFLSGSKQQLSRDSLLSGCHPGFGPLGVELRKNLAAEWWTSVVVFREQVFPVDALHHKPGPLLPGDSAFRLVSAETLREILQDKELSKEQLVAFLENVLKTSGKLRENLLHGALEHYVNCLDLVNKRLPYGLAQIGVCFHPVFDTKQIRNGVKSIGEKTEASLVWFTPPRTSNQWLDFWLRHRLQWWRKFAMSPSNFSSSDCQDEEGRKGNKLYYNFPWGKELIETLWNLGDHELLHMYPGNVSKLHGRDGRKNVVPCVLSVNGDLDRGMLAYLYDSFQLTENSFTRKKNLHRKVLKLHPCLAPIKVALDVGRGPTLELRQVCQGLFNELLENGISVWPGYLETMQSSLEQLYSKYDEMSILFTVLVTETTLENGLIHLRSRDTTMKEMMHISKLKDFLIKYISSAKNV
Test: DNA polymerization assay, W748S + E1143G mutant
Assay type: biochemical
Conditions: stimulation of polymerase activity, primed M13mp18 ssDNA, 37° C. 2 hours
measurement.kind: AC50 (µM)

{"columns": ["smiles.structure", "AC50 [µM]"],
 "data": [
  ["Cc1cc(S(=O)(=O)Nc2cccc(C(=O)N[C@H](C)c3ccccc3)c2)c(C)cc1Cl", 9]
]}

P = Cc1cc(S(=O)(=O)Nc2csc(C(=O)N3CCCC3)n2)c(C)cc1Cl
Q = CC[C@@H]1CCCN1C(=O)c1cccc(NS(=O)(=O)c2cc(C)c(Cl)cc2C)c1
Ask | In the pair P and Q , the larger recorded AC50 belongs to which? To answer, give the label that identifies your chosen option.
Reply | Q

----------
Target: POLγA:G848S (Homo sapiens, UniProt P54098, G848S)
Assay: DNA polymerization assay, POLγA:G848S mutant
Type: biochemical
Settings: stimulation of polymerase activity, primed M13mp18 ssDNA, 37° C. 2 hours; read-out: G848S AC50
measurement.kind: AC50 (µM)

Answered cases to consult:
{"columns": ["smiles.structure", "measurement.kind", "value.observed"],
 "data": [
  ["Cc1ccc(C)c(S(=O)(=O)Nc2cccc(C(=O)N(C)CC3CC3)c2)c1", "AC50", 56],
  ["Cc1cc(S(=O)(=O)Nc2cccc(-c3cc(C4CC4)[nH]n3)c2)c(C)cc1Cl", "AC50", 1],
  ["Cc1cc(S(=O)(=O)N[C@@H]2CCCN(C(=O)[C@@H]3CCCN3C)C2)c(C)cc1Cl", "AC50", 47],
  ["Cc1cc(S(=O)(=O)Nc2ccc3ccn(C(C)C)c3c2)c(C)cc1Cl", "AC50", 14],
  ["Cc1cc(S(=O)(=O)Nc2cccc(C(=O)N(C(C)C)C3COC3)c2)c(C)cc1Cl", "AC50", 40]
]}

I = Cc1cc(S(=O)(=O)Nc2cccc(C(=O)NCc3ccccc3)c2)c(C)cc1Cl
II = CNC(=O)c1cnc(-c2cccc(NS(=O)(=O)c3cc(C)c(Cl)cc3C)c2)s1
Ask | Two entries are listed, I and II . Which one carries the higher AC50? Indicate which entry you chose by stating its label.
Reply | I
(I: 34 µM, II: 9 µM)

I = Cc1ccc(C)c(S(=O)(=O)Nc2cccc(-c3nccs3)c2)c1
II = Cc1cc(S(=O)(=O)Nc2cccc(C(=O)NCCO)c2)c(C)cc1Cl
III = Cc1cc(S(=O)(=O)Nc2cccc(-c3ccn(C)n3)c2)c(C)cc1Cl
IV = Cc1cc(S(=O)(=O)Nc2cccc(C(=O)N(C)C)c2)c(C)cc1Cl
Ask | Arrange these compounds by their AC50, starting with the largest number. Give the labels in the order requested.
Reply | II, IV, III, I
(II: 63 µM, IV: 26 µM, III: 8 µM, I: 2 µM)

P = Cc1cc(S(=O)(=O)Nc2csc(-c3ccccc3)n2)c(C)cc1Cl
Q = Cc1ccc(C)c(S(=O)(=O)Nc2ccc(C(=O)N3CCCC[C@H]3C)s2)c1
Ask | Hi! Which is lower in terms of AC50, the first one P or the second one Q ? Answer by quoting the chosen item's label.
Reply | P
(P: 2 µM, Q: 51 µM)

----------
Recorded AC50, one value per entry.
Biological target: POLγA:A467T (Homo sapiens, UniProt P54098, A467T)
Sequence (P54098 whole entry A467T, one chain of several): as the sequence (P54098 whole entry G848S, one chain of several) above, with A467T, S848G counted along it
Experiment: DNA polymerization assay, POLγA:A467T mutant
Type: biochemical
Conditions: stimulation of polymerase activity, primed M13mp18 ssDNA, 37° C. 2 hours; read-out: A467T AC50

Example entries begin here.
{"columns": ["compound", "target.or.system", "AC50"],
 "data": [
  ["Cc1ccc(C)c(S(=O)(=O)Nc2cccc(C(=O)NCc3ccccc3)c2)c1", "POLγA:A467T (Homo sapiens, UniProt P54098, A467T)", "> 100 µM"],
  ["Cc1ccc(C)c(S(=O)(=O)Nc2cccc(C(=O)N3CCN(C)CC3)c2)c1", "POLγA:A467T (Homo sapiens, UniProt P54098, A467T)", "> 100 µM"],
  ["Cc1nc2ccc(NS(=O)(=O)c3cc(C)c(Cl)cc3C)cc2o1", "POLγA:A467T (Homo sapiens, UniProt P54098, A467T)", "32 µM"]
]}

Ask | Entry O=S(=O)(Nc1csc(-c2ccccc2)n1)c1ccc(F)cc1Cl : reported AC50 = ?
Reply | 32 µM

Ask | Any idea what its AC50 is? The compound is Cc1ccc(C)c(S(=O)(=O)Nc2cncc(C(=O)N3CCOCC3)c2)c1
Reply | > 100 µM

Ask | Name the recorded AC50 for Cc1cc(S(=O)(=O)Nc2cccc(-c3ccn(C)n3)c2)c(C)cc1Cl .
Reply | 17 µM

Ask | Endpoint output: AC50 of Cc1cc(S(=O)(=O)Nc2cccc(C(=O)N(CC(N)=O)C3CCCC3)c2)c(C)cc1Cl . Value?
Reply | > 100 µM

Ask | Quick check: AC50 of Cc1ccc(C)c(S(=O)(=O)Nc2cccc(C(=O)N(C)CC3CC3)c2)c1 ?
Reply | > 100 µM
